meta.source: paper PMC7878818

- systemName: Spindlin1 D173A/C11orf84 complex (human, UniProt Q9Y657 50-262; Q9BUA3 1-381, D173A)
- Sequence (Q9Y657 50-262 D173A, chain 1 of 2): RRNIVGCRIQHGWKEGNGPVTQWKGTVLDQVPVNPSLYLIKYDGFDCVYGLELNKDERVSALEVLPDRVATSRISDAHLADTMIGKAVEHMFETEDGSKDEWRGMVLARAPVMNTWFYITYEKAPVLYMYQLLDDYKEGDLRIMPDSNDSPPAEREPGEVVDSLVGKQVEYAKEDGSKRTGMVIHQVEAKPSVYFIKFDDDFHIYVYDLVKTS
- Sequence (Q9BUA3 219-305, chain 2 of 2): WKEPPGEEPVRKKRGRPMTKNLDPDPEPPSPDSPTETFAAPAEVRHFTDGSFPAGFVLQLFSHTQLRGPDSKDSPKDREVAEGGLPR
- protocolDetails: ITC
Ends that are not written are not given here. Me3 = trimethyl group on lysine (trimethyl-lysine)
experimentalReadout: Kd (nM)
Your answer should be a plain number; it is taken to be in nM.

Value lookup for Kd; key = ARTK(Me3)QTARK(Me3)STG [H3K4me3K9me3 peptide]
57
